# Test system: 388556-164-R-J1-PDC complex spheroid viability;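 also: spheroids exposed to compound for 7 days before readout; 100% = DMSO vehicle control luminescence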
# test: Anticancer human tumor 388556-164-R-J1-PDC patient-derived colon adenocarcinoma cell line growth inhibition [RAS]
# measurement context: second compound 0.1 µM; first compound 1 µM; stronger effect = lower value
observed property: viability, T/C (%)
Give bare numbers, in %.

>  <compound>
C=CC(=O)N1CCN(c2nc(OCC3CCCN3C)nc3c(F)c(-c4nc(N)cc(C)c4C(F)(F)F)c(Cl)cc23)C(C)C1 (stereo not drawn) + C#Cc1c(F)ccc2cc(O)cc(-c3ncc4c(N5CC6CCC(C5)N6)nc(OCC56CCCN5CC(F)C6)nc4c3F)c12

>  <result>
102

$$$$
>  <compound>
CC(C)NCC(C(=O)N1CCN(c2ncnc3c2C(C)CC3O)CC1)c1ccc(Cl)cc1 (stereo not drawn) + C=CC(=O)N1CCN(c2nc(OCC3CCCN3C)nc3c(F)c(-c4nc(N)cc(C)c4C(F)(F)F)c(Cl)cc23)C(C)C1

>  <result>
106

$$$$

Record for NC1c2ccccc2OC12CCN(c1cnc3c(N4CCCc5ncccc54)n[nH]c3n1)CC2 (stereo not drawn) + C#Cc1c(F)ccc2cc(O)cc(-c3ncc4c(N5CC6CCC(C5)N6)nc(OCC56CCCN5CC(F)C6)nc4c3F)c12 under target or system 388556-164-R-J1-PDC complex spheroid viability: viability, T/C reported as 32.5
